study target: Cytochrome P450 3A4 (Homo sapiens) (UniProt P08684)
Sequence (P08684 whole entry, looked up): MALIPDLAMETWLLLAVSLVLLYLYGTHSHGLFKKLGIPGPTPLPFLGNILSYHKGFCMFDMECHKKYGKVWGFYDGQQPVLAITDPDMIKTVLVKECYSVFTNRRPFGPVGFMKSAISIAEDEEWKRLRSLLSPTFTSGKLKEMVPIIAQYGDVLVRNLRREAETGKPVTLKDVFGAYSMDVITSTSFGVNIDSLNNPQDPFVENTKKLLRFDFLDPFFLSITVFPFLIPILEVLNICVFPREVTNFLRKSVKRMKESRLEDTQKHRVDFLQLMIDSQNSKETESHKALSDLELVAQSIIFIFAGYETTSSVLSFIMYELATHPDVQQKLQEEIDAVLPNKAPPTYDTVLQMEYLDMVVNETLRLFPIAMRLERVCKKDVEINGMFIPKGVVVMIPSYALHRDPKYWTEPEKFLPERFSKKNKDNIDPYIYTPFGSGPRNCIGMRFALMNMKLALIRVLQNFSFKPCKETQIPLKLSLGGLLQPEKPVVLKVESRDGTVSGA
assay remarks: qHTS Assay for Activators of Cytochrome P450 3A4 (AID 885); further: nearly all actives have a fitted effect of over 65% in size
test settings: recombinant CYP3A4, Luciferin-PPXE luminescence, 60 min; series mostly up to 57.1 µM
Description: NIH Molecular Libraries Screening Centers Network [MLSCN] NIH Chemical Genomics Center [NCGC] The P450 gene superfamily is involved in the metabolism and clearance of xenobiotics. […] The luciferin is then measured by luminescence after the addition of a luciferase detection reagent. […] Inhibitors and some substrates limit the production of luciferin, and decrease measured luminescence; activators increase the production of luciferin and luminescence. […]
The source made the active and inactive calls. The call rests on the fitted dose curve; in most records, active means well fitted activation curve with a large enough effect; inconclusive means small, poorly fitted or top-dose-only effect; inactive means no such curve, though single readings can be large or run the other way.
test readout: activity change, positive = activation

molecule	study target	test readout	value measured
CCC1=C2CC[C@H]3C(=O)N(CC)C(=O)[C@H]3[C@H]2[C@@]2(Cc3ccccc3)C(=O)N(CCOC)C(=O)N2C1=O	Cytochrome P450 3A4 (Homo sapiens) (UniProt P08684)	activity change, positive = activation	inactive
CCC[C@@H]1C[C@@]1(CCC)C(NC(=O)OCc1ccccc1)c1ccc(-c2ccccc2)cc1 (stereo partly drawn)	Cytochrome P450 3A4 (Homo sapiens) (UniProt P08684)	activity change, positive = activation	inactive
COCCNC(=O)[C@H](C)/C=C(\c1cccnc1)C(NC(=O)OCc1ccccc1)c1ccc(C(=O)OC)cc1 (stereo partly drawn)	Cytochrome P450 3A4 (Homo sapiens) (UniProt P08684)	activity change, positive = activation	inactive
COC(=O)N1[C@H](Cc2ccccc2)C=C[C@]1(C)C(=O)NCc1ccccn1	Cytochrome P450 3A4 (Homo sapiens) (UniProt P08684)	activity change, positive = activation	inactive
CO[C@H]1COC(=O)C/C=C\[C@H](C)[C@@H](NS(=O)(=O)c2ccc(C)cc2)COC(=O)CCC[C@@H]1C	Cytochrome P450 3A4 (Homo sapiens) (UniProt P08684)	activity change, positive = activation	-92.6% [at 11.4 µM] (inactive)
O=C(NCCC[N+]1=CC=N[C@H]1c1ccccc1)N1CCCc2nc(-c3ccc(Br)cc3)ccc21	Cytochrome P450 3A4 (Homo sapiens) (UniProt P08684)	activity change, positive = activation	-35.8% [at 11.4 µM] (inactive)
N#Cc1ccc(C23CC4(C2)[C@H](CN(Cc2cccnc2)[C@@H]4c2ccccc2)C3c2ccccc2)cc1 (stereo partly drawn)	Cytochrome P450 3A4 (Homo sapiens) (UniProt P08684)	activity change, positive = activation	inactive
CO[C@H]1COC(=O)C/C=C\[C@H](C)[C@@H](OC)COC(=O)[C@H](Cc2ccccc2)NC(=O)C/C=C\[C@@H]1C	Cytochrome P450 3A4 (Homo sapiens) (UniProt P08684)	activity change, positive = activation	-62.1% [at 11.4 µM] (inactive)

###

Recorded measurements of max response, one per entry
study target: Nuclear receptor subfamily 1 group I member 2 (Rattus norvegicus) (UniProt Q9R1A7)
Sequence (Q9R1A7 whole entry, looked up): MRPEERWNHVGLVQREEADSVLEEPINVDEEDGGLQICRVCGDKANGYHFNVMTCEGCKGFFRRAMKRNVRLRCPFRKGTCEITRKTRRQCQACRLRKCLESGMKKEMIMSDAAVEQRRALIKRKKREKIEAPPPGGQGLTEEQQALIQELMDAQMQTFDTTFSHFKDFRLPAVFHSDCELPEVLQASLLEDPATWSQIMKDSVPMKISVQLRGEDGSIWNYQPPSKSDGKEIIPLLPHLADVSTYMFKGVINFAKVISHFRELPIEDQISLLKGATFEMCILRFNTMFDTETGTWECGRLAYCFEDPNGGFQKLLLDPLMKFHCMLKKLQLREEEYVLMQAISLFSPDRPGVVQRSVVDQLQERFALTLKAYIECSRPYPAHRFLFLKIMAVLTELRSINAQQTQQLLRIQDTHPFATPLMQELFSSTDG
assay remarks: qHTS assay for small molecule activators of the rat pregnane X receptor (rPXR) signaling pathway (AID 651751); further: 0% is about no effect
test settings: rPXR reporter cells, luciferase (One-Glo), 24 h
test readout: max response (%)

given smiles	unit abbreviation	value measured
CCCCCCCCCC(=O)OC	%	-1.31
Cc1ccc(C(=O)c2ccccc2)cc1	%	3.11
CCCCCCCCCCCCc1ccccc1	%	0.082
O=C(O)c1ccc2c(c1)C(=O)OC2=O	%	0.711
CCCCCCCCCCCCCCCCN(C)C	%	2.85
CN(C)c1ccc(C(c2ccccc2)c2ccc(N(C)C)cc2)cc1	%	5.9
O=C(O)CCCCCCC(=O)O	%	-0.548
CCCCCCCC(=O)OC	%	2.14

Taken from PubChem BioAssay (NCATS).
